Numbers sourced from ChEMBL document CHEMBL4004850.

# assay-target: Trehalose-phosphatase (Brugia malayi)
# protocol-description: Inhibition of Brugia malayi T6PP using T6P as substrate assessed as fraction of enzyme unbound with compound by measuring ratio of initial velocities of T6P substrate hydrolysis in presence and absence of compound at 1 mM […] by BioMol green dye based HTS assay
# reported Ratio; entries follow
I only need the number, thanks.

Solved entries (count: 3):
O=S(=O)(O)OC[C@H]1O[C@@H](Oc2ccc(CO)cc2)[C@H](O)[C@@H](O)[C@@H]1O
0.68
O=P(O)(O)OC[C@H]1O[C@@H](Oc2ccccc2)[C@H](O)[C@@H](O)[C@@H]1O
0.79
CO[C@H]1O[C@H](COS(=O)(=O)O)[C@@H](OCc2ccccc2)[C@H](O)[C@H]1O
0.68

IN: Name the recorded Ratio for "O=[N+]([O-])c1ccc(O[C@@H]2O[C@H](COS(=O)(=O)O)[C@@H](O)[C@H](O)[C@H]2O)cc1" .
OUT: 0.64
